- procedure-text: amyloid nucleation score (Sup35N fusion, yeast selection) (log enrichment); library NNK1; higher = more nucleation; inactive = no reads after selection;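 also: zero at mode of non-aggregating sequences after 7 days selection at 30°C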
The label depends only on amyloid nucleation score: 1 (yes) if it is at least 0.1, 0 (no) if it is smaller.

Consider the following illustrative entries.
sequence-record: IINKSLWLPRNLAFGNY
assigned-class: 1 (yes)
--
sequence-record: NGVRYTVRLFMVLWR
assigned-class: 0 (no)
--
sequence-record: WLVGKTCNLYDLVLASLSNG
assigned-class: 0 (no)

Is the recorded value of amyloid nucleation score equal to or greater than 0.1 for this sequence? `YFKSWTLNMCVGIKNK` 1 (yes)

Is the recorded value of amyloid nucleation score equal to or greater than 0.1 for this sequence? `RKTNLGWHSICRA` 0 (no)

Is the recorded value of amyloid nucleation score equal to or greater than 0.1 for this sequence? `TDFPELWSNLFQPNGFRYGL` 1 (yes)
